# SYSTEM_NAME: CYP2D6 (Homo sapiens, UniProt P10635)
# Sequence (P10635 whole entry): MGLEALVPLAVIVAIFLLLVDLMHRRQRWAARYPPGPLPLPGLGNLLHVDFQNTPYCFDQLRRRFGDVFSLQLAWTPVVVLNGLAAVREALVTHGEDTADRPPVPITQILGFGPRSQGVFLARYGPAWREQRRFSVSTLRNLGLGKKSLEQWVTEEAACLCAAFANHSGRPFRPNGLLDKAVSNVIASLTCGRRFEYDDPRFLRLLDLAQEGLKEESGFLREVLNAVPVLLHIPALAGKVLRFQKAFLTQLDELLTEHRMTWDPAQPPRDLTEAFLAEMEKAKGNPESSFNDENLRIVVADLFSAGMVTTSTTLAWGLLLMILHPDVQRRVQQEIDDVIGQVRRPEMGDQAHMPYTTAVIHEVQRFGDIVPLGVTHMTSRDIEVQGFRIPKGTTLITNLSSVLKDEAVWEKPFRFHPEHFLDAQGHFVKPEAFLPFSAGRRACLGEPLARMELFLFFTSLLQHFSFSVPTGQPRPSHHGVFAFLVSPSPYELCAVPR
# TEST_DETAILS: in vitro
# CONDITION_DETAILS: human, microsomes, pH 7.4
READOUT: inhibition at 15 min, 10 µM

-- ask Name the recorded inhibition at 15 min, 10 µM of the compound listed here: O=c1cc(-c2ccc(O)c(-c3c(O)cc(O)c4c(=O)cc(-c5ccc(O)cc5)oc34)c2)oc2cc(O)cc(O)c12
-- reply > 50%

* * *

# SYSTEM_NAME: CYP3A (Homo sapiens)
# TEST_DETAILS: CYP450 cocktail inhibition assay (LC-MS/MS, human liver microsomes)
# Format: in vitro ADME
# CONDITION_DETAILS: human, liver microsomes, pH 7.4, probe Testosterone 5 µM (in cocktail)
Exercise: for every item that follows, state its recorded IC50 at 15 min.
Answers are plain numbers, in µM.

O=c1cc(-c2ccc(Oc3c(-c4ccc(O)cc4)oc4cc(O)cc(O)c4c3=O)cc2)oc2cc(O)cc(O)c12    7.25

-- ask State its IC50 at 15 min: O=c1cc(-c2ccc(O)c(-c3c(O)cc(O)c4c(=O)cc(-c5ccc(O)cc5)oc34)c2)oc2cc(O)cc(O)c12
-- reply 0.435

* * *

Reported pIC50, CYP2C19 (Homo sapiens, UniProt P33261).
One number for each entry, as −log10 of the molar value.

O=c1cc(-c2ccc(Oc3c(-c4ccc(O)cc4)oc4cc(O)cc(O)c4c3=O)cc2)oc2cc(O)cc(O)c12 [Delicaflavone]    4.14

Attention now turns to another entry.
-- ask Answer with the recorded pIC50 of O=c1cc(-c2ccc(O)c(-c3c(O)cc(O)c4c(=O)cc(-c5ccc(O)cc5)oc34)c2)oc2cc(O)cc(O)c12 [Amentoflavone] only.
-- reply 5.97

* * *

# SYSTEM_NAME: CYP1A2 (Homo sapiens, UniProt P05177)
# Sequence (P05177 whole entry): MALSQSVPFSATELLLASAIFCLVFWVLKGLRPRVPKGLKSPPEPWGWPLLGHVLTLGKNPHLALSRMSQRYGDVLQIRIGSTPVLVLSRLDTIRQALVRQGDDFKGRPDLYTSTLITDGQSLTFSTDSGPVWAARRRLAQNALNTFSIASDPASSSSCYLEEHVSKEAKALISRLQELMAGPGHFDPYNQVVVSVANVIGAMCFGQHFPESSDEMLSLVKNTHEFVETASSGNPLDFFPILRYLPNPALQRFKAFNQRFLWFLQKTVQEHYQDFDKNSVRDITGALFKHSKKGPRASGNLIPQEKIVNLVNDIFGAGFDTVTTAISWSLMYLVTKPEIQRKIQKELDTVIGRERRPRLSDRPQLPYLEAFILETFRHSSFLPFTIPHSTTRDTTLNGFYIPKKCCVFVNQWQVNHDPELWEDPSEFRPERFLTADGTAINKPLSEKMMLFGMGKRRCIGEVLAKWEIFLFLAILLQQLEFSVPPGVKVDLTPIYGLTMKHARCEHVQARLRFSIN
# TEST_DETAILS: CYP450 cocktail inhibition assay (LC-MS/MS, human liver microsomes)
# Type: in vitro ADME
# CONDITION_DETAILS: human, liver microsomes, pH 7.4, probe Phenacetin (in cocktail), single-point, 10 μM, HLM, read-out: inhibitory effect on CYP1A2
READOUT: inhibition at 15 min, 10 µM

-- ask Return value of inhibition at 15 min, 10 µM for input O=c1cc(-c2ccc(O)c(-c3c(O)cc(O)c4c(=O)cc(-c5ccc(O)cc5)oc34)c2)oc2cc(O)cc(O)c12 , no commentary.
-- reply > 50%

* * *

# SYSTEM_NAME: CYP3A (Homo sapiens, UniProt P08684)
# Sequence (P08684 2-503): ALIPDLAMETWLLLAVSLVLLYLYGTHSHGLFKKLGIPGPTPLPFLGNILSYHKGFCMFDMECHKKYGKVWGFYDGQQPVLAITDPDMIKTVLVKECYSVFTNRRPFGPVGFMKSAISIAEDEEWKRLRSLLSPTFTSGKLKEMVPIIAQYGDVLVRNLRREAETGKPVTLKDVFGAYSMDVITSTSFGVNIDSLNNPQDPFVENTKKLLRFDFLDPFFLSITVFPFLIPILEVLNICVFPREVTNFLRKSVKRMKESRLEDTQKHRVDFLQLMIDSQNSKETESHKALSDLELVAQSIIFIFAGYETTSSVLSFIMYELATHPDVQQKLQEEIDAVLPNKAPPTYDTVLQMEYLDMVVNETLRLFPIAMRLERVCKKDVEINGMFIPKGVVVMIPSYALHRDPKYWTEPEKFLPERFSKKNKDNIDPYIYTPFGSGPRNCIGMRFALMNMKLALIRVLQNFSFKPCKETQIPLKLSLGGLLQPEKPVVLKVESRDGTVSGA
# TEST_DETAILS: CYP450 cocktail inhibition assay (LC-MS/MS, human liver microsomes)
# Assay type: in vitro ADME
# CONDITION_DETAILS: human, liver microsomes, pH 7.4; single-point, 10 μM, cocktail assay, HLM, substrate not specified; read-out: inhibitory effect on CYP3A
READOUT: inhibition at 15 min, 10 µM

-- ask Quickly give me recorded inhibition at 15 min, 10 µM for O=c1cc(-c2ccc(O)c(-c3c(O)cc(O)c4c(=O)cc(-c5ccc(O)cc5)oc34)c2)oc2cc(O)cc(O)c12
-- reply > 50%

* * *

// each record: one item and its pIC50 for CYP2C9 (Homo sapiens)
Numbers only, as −log10 of the molar value.

Take each entry in turn and give its pIC50.
1. O=c1cc(-c2ccc(Oc3c(-c4ccc(O)cc4)oc4cc(O)cc(O)c4c3=O)cc2)oc2cc(O)cc(O)c12 [Delicaflavone]
2. O=c1cc(-c2ccc(O)c(-c3c(O)cc(O)c4c(=O)cc(-c5ccc(O)cc5)oc34)c2)oc2cc(O)cc(O)c12 [Amentoflavone]

-- reply
4.40
6.85
